- protocolText: Pharmacokinetic experiment in rats, intravenous injection and oral administration
- Format: in vivo
- experimentalConditions: rat, plasma, po; male Sprague Dawley rats, intragastric administration 2 mg/kg
- Protocol: In this experimental embodiment, in vivo pharmacokinetic evaluation was performed in rats by intravenous injection and oral administration. […]
For each of the compounds below, state its AUC(0-inf).
Output spec: scalar in ng·h/mL, unitless text.

The recorded AUC(0-inf) for entry Nc1ccc(-c2nc(F)c([C@@H]3[C@H]4C[C@H]4c4cc(-c5cc(Cl)ccc5-n5cnnn5)cc(=O)n43)[nH]2)c(F)n1 [Embodiment 36] equals 3310

// recorded AUC(0-inf) for O=C1CCc2c(ccc(-c3cnc([C@@H]4[C@H]5C[C@H]5c5nc(-c6cc(Cl)ccc6-n6cc(Cl)nn6)cc(=O)n54)[nH]3)c2F)N1 [Embodiment 90] : 17600
